- System: A549
- experimentDescription: Photocytotoxicity against human A549 cells assessed as growth inhibition at 3.75 J/cm'2 irradiation for 30 mins followed by drug treated for 72 hrs by MTT assay
- Format: functional
- conditionInfo: A549, light or radiation study
assayMetric: GI50

entrySmiles	assayTarget	assayMetric	experimentalResult
COc1ccc(-n2ncc3c2CCc2cc(S(=O)(=O)c4ccccc4)c(=O)n(C)c2-3)cc1	A549	GI50	> 20 µM
COc1ccc(-n2ncc3c2CCc2cc(S(=O)(=O)c4ccccc4)c(OC)nc2-3)cc1	A549	GI50	1.52 µM
COc1nc2c(cc1S(=O)(=O)c1ccccc1)CCc1c-2cnn1C	A549	GI50	> 20 µM
CCOC(=O)c1cc2c(n(C)c1=O)-c1cnn(-c3ccc(Cl)cc3)c1CC2	A549	GI50	> 20 µM
O=c1[nH]c2c(cc1S(=O)(=O)c1ccccc1)CCc1c-2cnn1Cc1ccccc1	A549	GI50	> 20 µM
Cn1c2c(cc(S(=O)(=O)c3ccccc3)c1=O)CCc1c-2cnn1Cc1ccccc1	A549	GI50	> 20 µM
COc1ccc(-n2ncc3c4nc(OC)c(S(=O)(=O)c5ccccc5)cc4ccc32)cc1	A549	GI50	0.09 µM
CCOC(=O)c1cc2c([nH]c1=O)-c1cnn(-c3ccc(Cl)cc3)c1CC2	A549	GI50	> 20 µM
CCOC(=O)c1cc2c(nc1OC)-c1cnn(-c3ccc(Cl)cc3)c1CC2	A549	GI50	2.3 µM
COc1ccc(-n2ncc3c2CCc2cc(S(=O)(=O)c4ccccc4)c(=O)n(Cc4ccccc4)c2-3)cc1	A549	GI50	> 20 µM
Cn1c(=O)c(S(=O)(=O)c2ccccc2)cc2ccc3c(cnn3-c3ccc(Cl)cc3)c21	A549	GI50	0.08 µM
Cn1c2c(cc(S(=O)(=O)c3ccccc3)c1=O)CCc1c-2cnn1-c1ccccc1Cl	A549	GI50	13 µM
COc1nc2c(cc1S(=O)(=O)c1ccccc1)CCc1c-2cnn1-c1ccccc1Cl	A549	GI50	4.8 µM
COc1nc2c(cc1S(=O)(=O)c1ccccc1)CCc1c-2cnn1-c1cccc(Cl)c1	A549	GI50	6.61 µM
O=c1c(S(=O)(=O)c2ccccc2)cc2c(n1Cc1ccccc1)-c1cnn(-c3ccc(Cl)cc3)c1CC2	A549	GI50	6.64 µM
Cn1c2c(cc(S(=O)(=O)c3ccccc3)c1=O)CCc1c-2cnn1-c1ccc(Cl)cc1	A549	GI50	> 20 µM
COc1nc2c(cc1S(=O)(=O)c1ccccc1)CCc1c-2cnn1Cc1ccccc1	A549	GI50	5.74 µM
O=c1[nH]c2c(cc1S(=O)(=O)c1ccccc1)CCc1c-2cnn1-c1ccccc1Cl	A549	GI50	8.97 µM
COc1ccc(-n2ncc3c2CCc2cc(S(=O)(=O)c4ccccc4)c(OCc4ccccc4)nc2-3)cc1	A549	GI50	5.74 µM
